I'd appreciate it if you could supply TGI values for the items below.
Test system: SK-OV-3 ovarian
Test: NCI tumour cell line growth inhibition, 48 h

Input line: Check the records and state TGI for COc1ccc(-c2cc(-c3ccccc3)n(C3OCC(OC(C)=O)C(OC(C)=O)C3OC(C)=O)c(=S)c2C#N)cc1 (centres undefined)
Output line: > 100 µM

Input line: Check the records and state TGI for CCC(CC)C(=O)OC[n+]1ccc(-c2c(COC(=O)NC(C)C)c(COC(=O)NC(C)C)c3n2CCC3)cc1
Output line: > 100 µM

Input line: Check the records and state TGI for CN1C(OCc2ccccc2)c2c(ccc3c2OCO3)C2C=Cc3cc4c(cc3C21)OCO4 (centres undefined)
Output line: 2.46 µM

Input line: Check the records and state TGI for CN1CCN(CCCOc2cccc3nc(Nc4ccc(Cl)c(F)c4)ccc23)CC1
Output line: 3.44 µM

Input line: Check the records and state TGI for C=C[C@@H](OCOCC[Si](C)(C)C)[C@@H](CC)OC(CCCOC(=O)C(C)(C)C)OC (some centres undefined)
Output line: > 100 µM

Input line: Check the records and state TGI for CC(=O)OCCOCNC(=S)N/N=C/c1ccc2ccccc2n1
Output line: > 100 µM

Input line: Check the records and state TGI for O=C(COc1ccc(/C=C2\Oc3ccccc3C2=O)cc1)Nc1nccs1
Output line: > 100 µM

Input line: Check the records and state TGI for Nc1ccc(-c2ncc3cc(-c4cccc(-c5cc6cnc(-c7ccc(N)cc7)nc6c6ccccc56)c4)c4ccccc4c3n2)cc1
Output line: > 100 µM

Input line: Check the records and state TGI for CCCCN(CCCC)c1ccc(C(=N)c2ccc(N(C)C)cc2)cc1
Output line: 2.66 µM

* * *

Test system: SK-MEL-2 melanoma
Test: NCI tumour cell line growth inhibition, 48 h
I'd appreciate it if you could supply GI50 values for the items below.

Input line: Fill: GI50 (SK-MEL-2 melanoma) for this compound N#CC(C#N)=Cc1c(-c2ccccc2)[nH]c2ccccc12
Output line: 19.1 µM

Input line: Fill: GI50 (SK-MEL-2 melanoma) for this compound Cc1oc2nc[nH]c(=O)c2c1C(=O)/C=C/c1ccc(Cl)cc1
Output line: 3.13 µM

Input line: Fill: GI50 (SK-MEL-2 melanoma) for this compound CCOC(=O)C1=C(C)NC2SC(=O)/C(=C\c3ccccc3Cl)N2C1c1ccccc1 (stereo not given)
Output line: > 100 µM

Input line: Fill: GI50 (SK-MEL-2 melanoma) for this compound O=C(COc1ccc(/C=C2\Oc3ccccc3C2=O)cc1)Nc1nccs1
Output line: 39 µM

Input line: Fill: GI50 (SK-MEL-2 melanoma) for this compound C/C=C(\C)c1cc(=O)c2c(C)cc3c(c2o1)C(=O)c1c(O)c(C2CC(C)(N(C)C)C(O)C(C)O2)cc(C2CC(N(C)C)C(O)C(C)O2)c1C3=O (stereo not given)
Output line: 3.67 µM

* * *

System: A549 NSCLC
Test: NCI tumour cell line growth inhibition, 48 h
Assay endpoint: TGI

Input line: Check the records and state TGI for COc1cc(-c2nn(-c3ccc(NC(=O)Nc4ccc(Cl)c(Cl)c4)cc3)cc2-c2ccncc2)ccc1Cl
Output line: > 100 µM

Input line: Check the records and state TGI for COc1cccc(/C(CC(O)(C(F)(F)F)C(F)(F)F)=N\N(C)C)c1
Output line: > 100 µM

Input line: Check the records and state TGI for CO[C@H]1[C@@H](O)[C@@H](C)O[C@@H](O[C@H]2CC[C@@]3(C)[C@H](CC[C@@H]4[C@@H]3CC[C@]3(C)[C@@H](C5=CC(=O)OC5)CC[C@]43O)C2)[C@@H]1O
Output line: 0.00487 µM

Input line: Check the records and state TGI for COc1cc2c(c(OC)c1OC)C(=O)CC(c1cccc(NC(=O)c3ccc(Br)cc3)c1)O2 (centres undefined)
Output line: > 100 µM
